B1: IQUB (parent)
chain: CRNCINLQNEAQKRESFLKYKCLL

# Variants of: B1
# PROTOCOL SUMMARY: protein stability index of a GFP-peptide fusion (GPS, HEK-293T) (PSI 1-6); higher = more stable;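 also: lentivirally expressed fusions sorted by FACS into six bins by GFP to DsRed ratio, PSI derived from sequencing read proportions per bin multiplied by bin number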
# MEASUREMENT CONTEXT: c terminus: a fixed tail appended
PARAMETER MEASURED: protein stability index

The examples below pair each entry with its known result.
- MUT: "K19W"
  protein stability index: 1.01
- MUT: "C22H"
  protein stability index: 2.18
- MUT: "R2A"
  protein stability index: 1.95
- MUT: "Q12K"
  protein stability index: 2.06
- MUT: "L18C"
  protein stability index: 2.6

Give protein stability index for each of the items listed below.
1. R2W
2. L23A
3. L7P
4. L23Q
5. N3A
6. L7G
7. Q12A

Result ::
1. 1.98
2. 1.5
3. 2.21
4. 1.87
5. 2.14
6. 2.36
7. 2.34

Give protein stability index for each of the items listed below.
1. R2D
2. E15N
3. I5W

Result ::
2.3
2.51
1.4

Give protein stability index for each of the items listed below.
1. R14D
2. C4M
3. Q8I

Result ::
1. 2.66
2. 2.12
3. 1.72

Give protein stability index for each of the items listed below.
1. K19M
2. Q8E
3. A11V
4. L7T

Result ::
1: 2.28; 2: 2.53; 3: 1.57; 4: 1.67
